biological target: T1, Human CD137 ECD (human); test: Biacore SPR, vs parent H183/L072
T1 construct: entry includes C-terminal His-tag and biotin acceptor peptide; also called human CD137 extracellular domain; 4-1BB
T1 sequence (chain, as listed by the source limits assumed): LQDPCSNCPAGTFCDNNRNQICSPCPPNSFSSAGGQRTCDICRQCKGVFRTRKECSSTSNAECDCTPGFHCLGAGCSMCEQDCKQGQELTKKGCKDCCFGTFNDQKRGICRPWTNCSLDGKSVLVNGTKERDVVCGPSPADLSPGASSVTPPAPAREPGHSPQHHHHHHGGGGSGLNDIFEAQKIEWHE
Endpoint label: fold change of affinity (fold)

Binder	Unit text	Result
H183/L072 VL A89I (antibody, name in Kabat numbering, V domains shown, Dual-Ig) VH: QVQLVESGGGLVQPGRSLRLSCAASGFTFSNAWMHWVRQAPGKGLEWVAQIKDKGNAYAAYYAPSVKGRFTISRDDSKNSIYLQMNSLKTEDTAVYYCHYVHYASASTVLPAFGVDAWGQGTTVTVSS VL: DIVMTQSPLSLPVTPGEPASISCQASQELVHMNRNTYLHWYQQKPGQAPRLLIYKVSNRFPGVPDRFSGSGSGTDFTLKISRVEAEDVGVYYCIQGTSVPFTFGQGTKLEIK	fold	0
H183/L072 VL Q24L (antibody, name in Kabat numbering, V domains shown, Dual-Ig) VH: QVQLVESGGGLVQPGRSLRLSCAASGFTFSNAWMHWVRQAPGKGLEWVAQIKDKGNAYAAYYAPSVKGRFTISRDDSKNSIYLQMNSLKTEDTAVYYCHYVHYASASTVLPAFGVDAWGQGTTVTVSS VL: DIVMTQSPLSLPVTPGEPASISCLASQELVHMNRNTYLHWYQQKPGQAPRLLIYKVSNRFPGVPDRFSGSGSGTDFTLKISRVEAEDVGVYYCAQGTSVPFTFGQGTKLEIK	fold	0.9
H183/L072 VL Q27S (antibody, name in Kabat numbering, V domains shown, Dual-Ig) VH: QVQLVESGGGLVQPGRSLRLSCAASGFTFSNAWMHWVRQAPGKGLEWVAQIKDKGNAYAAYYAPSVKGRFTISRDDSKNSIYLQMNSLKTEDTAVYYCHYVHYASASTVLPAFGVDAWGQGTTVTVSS VL: DIVMTQSPLSLPVTPGEPASISCQASSELVHMNRNTYLHWYQQKPGQAPRLLIYKVSNRFPGVPDRFSGSGSGTDFTLKISRVEAEDVGVYYCAQGTSVPFTFGQGTKLEIK	fold	0.8
